target: Luciferin 4-monooxygenase (Photinus pyralis, UniProt P08659); assay: inhibition of purified Photinus pyralis luciferase – biochemical, luminescence, dose response (AID 1891)
Sequence (P08659 whole entry): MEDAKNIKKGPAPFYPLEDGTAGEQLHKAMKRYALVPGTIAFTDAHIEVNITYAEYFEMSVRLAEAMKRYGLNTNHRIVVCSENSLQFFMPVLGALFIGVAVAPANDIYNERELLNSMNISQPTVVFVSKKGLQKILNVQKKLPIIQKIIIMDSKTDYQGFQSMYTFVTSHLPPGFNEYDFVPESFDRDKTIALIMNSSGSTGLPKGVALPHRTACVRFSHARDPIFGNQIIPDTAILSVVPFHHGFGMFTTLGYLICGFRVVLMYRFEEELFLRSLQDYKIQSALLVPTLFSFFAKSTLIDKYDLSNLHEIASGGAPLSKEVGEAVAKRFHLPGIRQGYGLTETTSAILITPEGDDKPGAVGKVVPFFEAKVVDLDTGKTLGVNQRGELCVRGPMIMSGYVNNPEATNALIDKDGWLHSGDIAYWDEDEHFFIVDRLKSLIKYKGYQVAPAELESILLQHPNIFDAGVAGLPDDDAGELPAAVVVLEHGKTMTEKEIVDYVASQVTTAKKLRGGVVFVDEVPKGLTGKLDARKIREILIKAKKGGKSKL
MEASUREMENT_KIND: EC50

State EC50 on Luciferin 4-monooxygenase (Photinus pyralis, UniProt P08659). Entry: Cn1nc(C(=O)OCC(=O)Nc2sccc2C(N)=O)c2ccccc2c1=O > 112 µM (not active)

State EC50 on Luciferin 4-monooxygenase (Photinus pyralis, UniProt P08659). Entry: Cc1[nH]c(=O)c(C#N)cc1-c1ccncc1 [MILRINONE] > 112 µM (not active)

State EC50 on Luciferin 4-monooxygenase (Photinus pyralis, UniProt P08659). Entry: Fc1ccc(C2CC(c3ccccc3)n3ncnc3N2)cc1 (configuration not stated) > 112 µM (not active)

State EC50 on Luciferin 4-monooxygenase (Photinus pyralis, UniProt P08659). Entry: COc1ccc(N2CC(C(=O)NCc3ccccc3)CC2=O)cc1 (configuration not stated) > 112 µM (not active)

State EC50 on Luciferin 4-monooxygenase (Photinus pyralis, UniProt P08659). Entry: COc1cc2cc(C(N)=O)c(N)nc2cc1OC > 112 µM (not active)

State EC50 on Luciferin 4-monooxygenase (Photinus pyralis, UniProt P08659). Entry: CC(C)COc1ccc(C(=O)Nc2ccc(NC(=O)c3ccco3)c(Cl)c2)cc1 > 112 µM (not active)

State EC50 on Luciferin 4-monooxygenase (Photinus pyralis, UniProt P08659). Entry: CCOC(=O)c1nc2sc3c(c2c(=O)[nH]1)CCCC3 > 112 µM (not active)

----------
target: Mannose-6-phosphate isomerase (Homo sapiens); assay: MPI inhibition at elevated mannose 6-phosphate – biochemical, fluorescence intensity, high mannose 6-phosphate, primary screen (AID 1220)
Sequence (P34949 whole entry): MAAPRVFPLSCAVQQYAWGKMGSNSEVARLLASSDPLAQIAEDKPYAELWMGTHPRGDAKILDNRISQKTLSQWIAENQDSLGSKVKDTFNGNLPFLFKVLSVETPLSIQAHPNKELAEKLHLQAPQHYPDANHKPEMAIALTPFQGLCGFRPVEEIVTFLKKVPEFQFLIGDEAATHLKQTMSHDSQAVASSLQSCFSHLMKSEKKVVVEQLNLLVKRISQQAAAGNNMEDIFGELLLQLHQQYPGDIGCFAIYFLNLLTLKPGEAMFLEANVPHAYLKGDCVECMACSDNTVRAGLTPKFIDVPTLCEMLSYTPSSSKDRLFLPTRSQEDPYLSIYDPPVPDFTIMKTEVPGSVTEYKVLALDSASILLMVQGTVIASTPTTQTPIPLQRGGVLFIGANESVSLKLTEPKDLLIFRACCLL
Activity calls are given as the source filed them.
MEASUREMENT_KIND: IC50

Please list IC50 recorded for the compound CC(=O)N1C(=O)/C(=C2\SC(=S)N(c3c(C)n(C)n(-c4ccccc4)c3=O)C2=O)c2ccccc21 > 50 µM (not active)

Please list IC50 recorded for the compound CN(Cc1c(O)ccc2c1oc(=O)c1ccccc12)C1CCCCC1 7.13 µM (active)

Please list IC50 recorded for the compound CC(=O)NNC(=O)c1sc(=S)n2c1[nH]c(=O)c1sccc12 > 50 µM (not active)

Please list IC50 recorded for the compound Oc1ccc(CNc2ccccc2)c2cccnc12 > 50 µM (not active)

Please list IC50 recorded for the compound Nc1nnc(S)n1N=C1C(=O)Nc2ccccc21 4.84 µM (active)

----------
target: UniProt:Q9HC16; assay type: functional
Sequence (Q9HC16 whole entry): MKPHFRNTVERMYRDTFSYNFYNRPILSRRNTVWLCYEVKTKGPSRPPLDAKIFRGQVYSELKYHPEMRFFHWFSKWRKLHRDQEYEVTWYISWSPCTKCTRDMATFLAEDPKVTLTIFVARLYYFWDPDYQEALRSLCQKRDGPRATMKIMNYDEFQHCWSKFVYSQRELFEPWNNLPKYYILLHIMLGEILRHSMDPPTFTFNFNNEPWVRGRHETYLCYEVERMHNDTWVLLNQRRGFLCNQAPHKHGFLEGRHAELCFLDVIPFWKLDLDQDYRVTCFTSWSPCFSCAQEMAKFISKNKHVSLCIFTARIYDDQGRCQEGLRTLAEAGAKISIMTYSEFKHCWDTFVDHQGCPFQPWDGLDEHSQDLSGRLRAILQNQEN
Calls of active or inactive are those of the source.
Select the matching outcome among T = active, F = inactive

Would you mind telling me which call this test gave Cc1cc(=O)[nH]c(SCC(=O)NCc2ccco2)n1 ? T

Would you mind telling me which call this test gave Cc1ccc(C)c(NC(=O)C2CC(O)CN2C(=O)Oc2ccccc2)c1 (centres undefined) ? T

Would you mind telling me which call this test gave C#CCn1cc(/C=N/NC(=O)COc2cccc3cccnc23)c2ccccc21 ? F

Would you mind telling me which call this test gave Cc1ccccc1/C=C/c1cc[n+](C)cc1 ? T

----------
target: Kallikrein-7 (Homo sapiens); experiment: Fluorescence Intensity-based biochemical primary high throughput dose response assay to identify activators of kallikrein-7 (K7) zymogen.
Sequence (P49862 whole entry): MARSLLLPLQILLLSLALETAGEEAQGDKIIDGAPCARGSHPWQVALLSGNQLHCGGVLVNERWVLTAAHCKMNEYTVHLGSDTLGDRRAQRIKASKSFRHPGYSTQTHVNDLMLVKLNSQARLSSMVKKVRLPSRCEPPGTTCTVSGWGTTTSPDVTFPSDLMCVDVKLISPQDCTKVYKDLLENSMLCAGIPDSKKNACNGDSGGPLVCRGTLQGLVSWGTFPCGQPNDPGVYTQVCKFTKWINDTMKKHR
The source made the active and inactive calls.
Select the matching outcome among active, inactive

Would you mind telling me which call this test gave CCc1cc2c(CN3CCN(Cc4ccccc4)CC3)cc(=O)oc2cc1O ? inactive

Would you mind telling me which call this test gave CCCCc1cc(=O)oc2cc(C)cc(OCC(=O)N3CCC(C(=O)O)CC3)c12 ? active

Would you mind telling me which call this test gave CCCC(=O)Nc1ccc2nn(-c3ccc(OC)cc3)nc2c1 ? inactive

Would you mind telling me which call this test gave Cc1cc2nc(-c3ccc(SCc4ccccn4)nc3)[nH]c2cc1C ? inactive

Would you mind telling me which call this test gave CC(=O)N1CCN(C2=Nc3cccc4cccc2c34)CC1 ? inactive
